From: patent US5886022A

Test system: MMP
Assay: MMP inhibitory activity
Type: biochemical
PROPERTY LABEL: MMP inhibitory activity / potency in words

> print(dat)
                                   compound  assay.value
1  O=C(CC(CCCc1ccccc1)C(=O)O)c1ccc(-c2ccccc2)cc1 (stereo not shown)  low potency
2  CC(C)CC(CC(=O)c1ccc(-c2ccccc2)cc1)C(=O)O (stereo not shown)  low potency

* * *

Target: MMP-9 (Gelatinase-B, 92 kDa) (Homo sapiens, UniProt P14780)
Sequence (P14780 107-707 limits assumed): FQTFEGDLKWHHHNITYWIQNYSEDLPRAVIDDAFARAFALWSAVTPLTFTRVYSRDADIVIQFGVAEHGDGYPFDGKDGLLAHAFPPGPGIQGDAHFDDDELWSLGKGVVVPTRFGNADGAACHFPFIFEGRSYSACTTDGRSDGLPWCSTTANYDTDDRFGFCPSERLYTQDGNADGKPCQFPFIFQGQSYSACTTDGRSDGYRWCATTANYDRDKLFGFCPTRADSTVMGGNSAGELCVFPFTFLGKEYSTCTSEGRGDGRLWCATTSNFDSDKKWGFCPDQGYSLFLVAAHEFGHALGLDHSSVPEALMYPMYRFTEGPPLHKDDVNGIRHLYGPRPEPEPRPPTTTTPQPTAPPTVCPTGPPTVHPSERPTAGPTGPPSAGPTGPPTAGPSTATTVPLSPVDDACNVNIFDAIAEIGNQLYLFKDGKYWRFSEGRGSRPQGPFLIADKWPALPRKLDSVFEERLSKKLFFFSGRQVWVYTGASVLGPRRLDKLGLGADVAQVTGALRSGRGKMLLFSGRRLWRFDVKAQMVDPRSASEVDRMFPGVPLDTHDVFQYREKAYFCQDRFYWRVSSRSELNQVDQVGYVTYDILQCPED
Assay: Thiopeptilide MMP-9 Inhibition Assay
Conditions: x (n): average IC50 of n separate determinations
pIC50: −log10 of the molar value.
PROPERTY LABEL: pIC50

> print(dat)
                                   molecule  assay.value
1  COC(=O)c1ccccc1S[C@@H]1CC[C@H](C(=O)c2ccc(-c3ccc(Cl)cc3)cc2)[C@H]1C(=O)O (relative stereo)         6.97
2  O=C(O)[C@@H]1[C@H](Sc2ccc(Cl)cc2)CC[C@H]1C(=O)c1ccc(-c2ccc(Cl)cc2)cc1 (relative stereo)         6.15
3  O=C(CC(Cc1ccccc1)C(=O)O)c1ccc(-c2ccc(Cl)cc2)cc1 (stereo not drawn)         6.05
